Each entry below carries its recorded pKd.
# STUDY SYSTEM: T1, extracellular domain of rhesus monkey BCMA (rhesus monkey, UniProt F7FFA0 1-53)
# T1 construct: extracellular domain; also called RhBCMA
# T1 sequence (F7FFA0 entry or part of it): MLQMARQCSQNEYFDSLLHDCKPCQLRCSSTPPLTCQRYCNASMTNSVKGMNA
# TEST: Octet BLI; Fab 200 nM
// pKd here means minus log10 of the molar concentration (mol/L)

Here's what some known entries look like.
{"BINDER": "AB200-(2Vk35)_R2-VH-v63 (Fab, V domains shown) VH: QVQLVQSGAEVKKPGSSVKVSCKASGGTFSNYWIHWVRQAPGQGLEWMGATYRIHSTTNYNQKFKSRVTITADESTSTAYMELSSLRSEDTAVYYCARGAVYHGYDVIDNWGQGTLVTVSS VL: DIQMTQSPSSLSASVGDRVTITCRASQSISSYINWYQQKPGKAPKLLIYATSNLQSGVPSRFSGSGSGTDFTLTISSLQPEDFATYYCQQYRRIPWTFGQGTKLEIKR", "pKd": 8.02}
{"BINDER": "AB200-(2Vk35)_R2-VH-v15 (Fab, V domains shown) VH: QVQLVQSGAEVKKPGSSVKVSCKASGGSFSNYWIHWVRQAPGQGLEWMGATYRSQSTTYYNQKFKSRVTITADKSTSTAYMELSSLRSEDTAVYYCARGAIFHGYDVIDNWGQGTLVTVSS VL: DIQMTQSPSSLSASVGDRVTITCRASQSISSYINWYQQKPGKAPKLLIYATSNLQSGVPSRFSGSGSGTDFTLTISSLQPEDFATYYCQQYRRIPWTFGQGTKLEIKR", "pKd": 7.31}

--- query ---
Incoming: Quick check: pKd of AB200-(2Vk35)_R2-VH-v8 (Fab, V domains shown) VH: QVQLVQSGAEVKKPGSSVKVSCKASGGTYSNYWIHWVRQAPGQGLEWMGGTYRSQSDTYYNQKFKSRVTITADKSTSTAYMELSSLRSEDTAVYYCARGAIYHGFDVIDNWGQGTLVTVSS VL: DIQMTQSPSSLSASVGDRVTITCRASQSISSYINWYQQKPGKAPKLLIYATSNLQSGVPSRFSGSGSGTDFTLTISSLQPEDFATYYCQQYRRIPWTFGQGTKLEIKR ?
Outgoing: 7.42
